- target_or_test_system: Renin (Homo sapiens, UniProt P00797)
- Sequence (P00797 whole entry): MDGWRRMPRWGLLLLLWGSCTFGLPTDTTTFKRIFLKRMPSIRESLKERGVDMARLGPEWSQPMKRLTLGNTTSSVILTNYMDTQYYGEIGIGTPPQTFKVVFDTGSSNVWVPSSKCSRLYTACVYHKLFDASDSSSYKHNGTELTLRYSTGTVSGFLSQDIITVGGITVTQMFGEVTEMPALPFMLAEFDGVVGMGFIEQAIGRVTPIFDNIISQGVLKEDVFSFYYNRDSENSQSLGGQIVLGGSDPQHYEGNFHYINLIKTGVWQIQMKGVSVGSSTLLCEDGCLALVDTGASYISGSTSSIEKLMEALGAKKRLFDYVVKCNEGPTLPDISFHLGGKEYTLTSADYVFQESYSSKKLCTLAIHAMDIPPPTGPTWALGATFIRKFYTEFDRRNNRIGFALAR
- test_summary: Inhibition of human recombinant renin preincubated for 30 mins followed by substrate addition measured after 15 mins by fluorescence analysis
Each record is given Yes if its reported IC50 is strictly below 2 nM. Records at or above 2 nM are given No.

Worked examples, 5 compounds total:
[[record]]
compound = "COCCCOc1cc(C[C@@H](C[C@H](N)[C@@H](O)C[C@H](C(=O)NCC(C)(C)Cc2cccnc2)C(C)C)C(C)C)ccc1OC"
group_label = "No"

[[record]]
compound = "COCCCOc1cc(C[C@@H](C[C@H](N)[C@@H](O)C[C@H](C(=O)NCC(C)(C)Cn2cc(-c3ccccn3)nn2)C(C)C)C(C)C)ccc1OC"
group_label = "Yes"

[[record]]
compound = "COCCCOc1cc(C[C@@H](C[C@H](N)[C@@H](O)C[C@H](C(=O)NCC(C)(C)Cc2ccccc2F)C(C)C)C(C)C)ccc1OC"
group_label = "No"

[[record]]
compound = "COCCCOc1cc(C[C@@H](C[C@H](N)[C@@H](O)C[C@H](C(=O)NCC(C)(C)Cn2cc(CN3CCCCC3)nn2)C(C)C)C(C)C)ccc1OC"
group_label = "Yes"

[[record]]
compound = "COCCCOc1cc(C[C@@H](C[C@H](N)[C@@H](O)C[C@H](C(=O)NCCc2ccccn2)C(C)C)C(C)C)ccc1OC"
group_label = "No"


Data request: Strictly below 2 nM: is that where IC50 of COCCCOc1cc(C[C@@H](C[C@H](N)[C@@H](O)C[C@H](C(=O)NCC(C)(C)Cc2ccncc2)C(C)C)C(C)C)ccc1OC sits?
Data returned: Yes

Data request: Strictly below 2 nM: is that where IC50 of COCCCOc1cc(C[C@@H](C[C@H](N)[C@@H](O)C[C@H](C(=O)NCC(C)(C)Cn2cc(C(C)O)nn2)C(C)C)C(C)C)ccc1OC (some centres not stated) sits?
Data returned: Yes

Cited source for all entries: ChEMBL document CHEMBL3632546
